# ASSAYED_TARGET: T1, cynomolgus PD-1 ECD (Acro Biosystems cat. no. PD1-05223) (cynomolgus, UniProt B0LAJ3 25-170)
# T1 construct: Bought monomeric ECD; not shown: any purification tag of the vendor's product (Acro Biosystems PD1-05223, probably a His tag)
# T1 sequence (B0LAJ3 entry or part of it limits assumed): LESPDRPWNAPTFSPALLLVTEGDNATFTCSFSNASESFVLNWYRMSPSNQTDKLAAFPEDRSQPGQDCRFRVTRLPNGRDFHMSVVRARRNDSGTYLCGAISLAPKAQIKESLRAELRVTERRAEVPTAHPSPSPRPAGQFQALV
# TEST_PROTOCOL: SPR, antibody on sensor, monomeric PD-1 ECD in solution
ENDPOINT: kon (M⁻¹ s⁻¹)
The reply should contain only the number, in M⁻¹ s⁻¹.

What value of kon has been recorded for this entry: antibody 18325 (antibody, V domains shown, Tested as human IgG1 L234A/L235A (LALA), kappa) VH: QVQLQQSGGGLVQPGGSLRLSCAASGFTFSSHVMNWVRQAPGKGLEWVATISGSGVDTYYADSVKGRFTISRGNSKNMLYLQMNSLRAEDTAVYYCAKWGSWSAGAFDIWGQGTMVTVSS VL: EIVLTQSPSSVSASVGDRVTITCRASQGISSWLAWYQQKPGKAPKLLIYAASSLQSGVPSRFSGSGSGTDFTLTISSLQPEDFATYYCQQANSFPWTFGQGTKVEIKR 140000

What value of measured kon is listed for antibody 18113 (antibody, V domains shown, Tested as human IgG1 L234A/L235A (LALA), kappa) VH: QVQLVESGGGLVKPGGSLRLSCAASGFTFSDYYMSWIRQAPGKGLEWVSYISSSGSTIYYADSAKGRFTISRDNAKNSLYLQMNSLRAEDTAVYYCARDTNWAFDYWGQGTLVTVSS VL: DIQLTQSPDSLAVSLGERATINCKSSQSVFYSANNKNYLAWYQQKPGQPPKLLIYWTSTRESGVPDRFRGSGSGTDFTLTISSLQAEDVAVYYCQQFYSTPRTFGQGTKVEIKR ? 140000

Which kon value belongs to antibody 18049 (antibody, V domains shown, Tested as human IgG1 L234A/L235A (LALA), kappa) VH: QVQLVESGGGVVQPGRSLRLSCAASGFTFSNYGMHWVRQAPGKGLEWVAVIWYDGSDKYYADSVKGRFTISRDNSKNTLYLQMNSLRAEDTAVYYCAGGGNYYGDFWGQGTLVTVSS VL: EIVMTQSPSSLSASVGDRVTITCRASQGIRNDLGWYQQKPGKAPKRLIYVASNLQSGVPSRFSGSGSGTEFTLTISSLQPEDFATYYCLQYNSYPWTFGQGTKVEIKR ? 38000
